# System: PPARa:RXRa (NR concentration 270 nM, RXRa partner concentration 90 nM)
# assay name: PBM binding z-score (relative to random genomic background probes); higher = stronger binding; sequences stand for … in GC…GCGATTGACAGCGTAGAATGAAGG
observed property: PBM binding z-score
The answer should be written as a number, with no unit following it.

Answered cases to consult:
# PBM binding z-score of TAGCCTAGGTCAGGCGGGCCAGTATAGTGTCGGC = 1.55

# PBM binding z-score of CCTACTCGGCCAAGGTCATTGATCAGTCAAAGCA = 3.52

# PBM binding z-score of ATCGAAAGGTCTACGAGGTGAGTATACACCGTTT = 1.03

# PBM binding z-score of ATATGTAGGTTCGCTGGGGTCATTCAGACTAGGC = 4.69

# PBM binding z-score of ATACCAAGGCGATCGTGAGGTCGTTGATACTAAC = 0.703

# PBM binding z-score of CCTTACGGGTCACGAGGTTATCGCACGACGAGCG = 5.78

# PBM binding z-score of CCTACTGGGCCATCCAGAGGTCATTGATCATATG = 4.07

# PBM binding z-score of CGTCCAAGGTCAGCAGGTCAGTGAAAGCGACGTG = 4.76

# PBM binding z-score of CAAACTAGGTCAAAGTCAAAGTCGGTTTGTGCCA = 5.18

# PBM binding z-score of TAGCCTAGGTCATTGGGCCAGTATGGTACGCATC = 3.63

Further cases:
# PBM binding z-score of GCGACTGGGGCAAAGCAGGTTACCCTAAGGTTGG = 1.56

# PBM binding z-score of ACAATGAGGTTATACGTAGATCAGGGAAGAAAGT = 2.93

* * *

# Tested on: PPARg:RXRa 90nM:30nM, anti-RXR (NR concentration 90 nM, RXRa partner concentration 30 nM)
# assay name: PBM binding z-score (relative to random genomic background probes); higher = stronger binding; sequences stand for … in GC…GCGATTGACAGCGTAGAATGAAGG
Give True when the value for PBM binding z-score is at least 0.9. Give False when it is less.

Examples with answers:
**Q:** Say whether TAGCCGAGGTCAGATCGGGCCAGTATACGCTATA shows PBM binding z-score of 0.9 or more.
**A:** True

**Q:** Say whether CGTCCAAGGTCAGCAGGTCAGGGAAAGCGACGTG shows PBM binding z-score of 0.9 or more.
**A:** True

**Q:** Say whether TGACCAAGGTGAAAGGTCGTTGATGCACGCCTTG shows PBM binding z-score of 0.9 or more.
**A:** True

**Q:** Say whether AGTCACAGTTCAGGACGAGGTAACGTAAAGCACG shows PBM binding z-score of 0.9 or more.
**A:** False

**Q:** Say whether TGTCGGAGGACACGAAAGGTCAGAGCTCGACATC shows PBM binding z-score of 0.9 or more.
**A:** True

**Q:** Say whether GGAACGAGGGCAAGTTGATAGCTGAGTTTGATGG shows PBM binding z-score of 0.9 or more.
**A:** False

Further cases:
**Q:** Say whether GATACAGGGGCAGCTAGAGGCCAGAGTATGGAAA shows PBM binding z-score of 0.9 or more.
**A:** False

**Q:** Say whether CCTACTGGGCCATCAGGACATTGATATCAACGTT shows PBM binding z-score of 0.9 or more.
**A:** False

**Q:** Say whether ATCTCTAGGTAAACAAGTTCAGTGAATGCCGAAC shows PBM binding z-score of 0.9 or more.
**A:** False

**Q:** Say whether ACTATTAGTTGAGACGAGGGCAACCCATAGGTTG shows PBM binding z-score of 0.9 or more.
**A:** False

**Q:** Say whether CGTCCAAGGTCTATGCTAGGTCAGTGAAAGCATT shows PBM binding z-score of 0.9 or more.
**A:** False

**Q:** Say whether CATGCTAGGTCATGGTCAGCTAATCTACAGTATG shows PBM binding z-score of 0.9 or more.
**A:** True

**Q:** Say whether TCTCGTAGATCAACAGGAGGTTAAGAAAGATCGA shows PBM binding z-score of 0.9 or more.
**A:** True
